Tested on: U2OS
ASSAY_NOTES: Incucyte cell viability with U2OS; further: unitless GR value; below 1 slowed growth and below 0 cell loss
Type: toxicity, cell-based
ASSAY_CONDITIONS: human, 12 h, 10 µM, compound concentration 10 uM, replicate number 2
RECORDED_METRIC: Growth Rate

molecule="CC1CCN(c2ccnc(NCc3cn(C)cn3)n2)CC1 [TP-040]" test_target=U2OS recorded_metric="Growth Rate" reported_result=0.8
molecule=CN1CCC(F)(Cn2cnc(-c3ccc(F)cn3)c2-c2ccnc3[nH]ccc23)CC1 test_target=U2OS recorded_metric="Growth Rate" reported_result=0.87
molecule="C[S+]([O-])c1ccc(-c2nc(-c3cccc(I)c3)c(-c3ccncc3)[nH]2)cc1 (stereo not given)" test_target=U2OS recorded_metric="Growth Rate" reported_result=0.8
molecule=CC(C)(O)CNC(=O)N1C(=O)N(c2cccc(C(F)(F)F)c2)C2=C(C(=O)CC2)[C@H]1c1ccc(C#N)cc1 test_target=U2OS recorded_metric="Growth Rate" reported_result=0.96
molecule=CC(C)(O)[C@H](F)CN1Cc2cc(NC(=O)c3cnn4cccnc34)c(N3CCOCC3)cc2C1=O test_target=U2OS recorded_metric="Growth Rate" reported_result=0.95

* * *

Tested on: Fibroblast
ASSAY_NOTES: Incucyte cell viability with human fibroblast; further: unitless GR value; below 1 slowed growth and below 0 cell loss
Format: toxicity, cell-based
ASSAY_CONDITIONS: 0 h, 10 µM, compound concentration 10 uM, replicate number 2
RECORDED_METRIC: Growth Rate

molecule="CNC1(C)C2CCC(C2)C1(C)C.Cl (stereo not given) [MECAMYLAMINE HYDROCHLORIDE]" test_target=Fibroblast reported_result=0.92
molecule=Clc1ccc(-c2nc3sccn3c2/C=N/OCc2ccc(Cl)c(Cl)c2)cc1 test_target=Fibroblast reported_result=0.32
molecule="CCCCCCC(Sc1nc(Cl)cc(NCc2ccc(-c3ccccc3)cc2)n1)C(=O)O (stereo not given)" test_target=Fibroblast reported_result=-0.63
molecule=CCCCC/C=C/C=C1/C(=O)C=C[C@@H]1C/C=C\CCCC(=O)O test_target=Fibroblast reported_result=-0.86
molecule=O=C(NC[C@@H]1[C@H]2CN(C(=O)OCc3cc(C(F)(F)F)cc(C(F)(F)F)c3)C[C@@H]12)c1ccc2[nH]nnc2c1 test_target=Fibroblast reported_result=-0.7
molecule=CC(C)N(CCCCOCC(=O)O)c1cnc(-c2ccccc2)c(-c2ccccc2)n1 test_target=Fibroblast reported_result=-0.09
molecule=N#CN1CC[C@H](C(=O)Nc2nc3c(s2)CN(C(=O)CN=[N+]=[N-])CC3)C1 test_target=Fibroblast reported_result=0.48
molecule="O=C(Nc1ccc(Oc2ccc(Cl)cc2)c(Cl)c1)c1cc(I)cc(I)c1O [RAFOXANIDE]" test_target=Fibroblast reported_result=-0.93
molecule=COCCN(C)c1ccc(NC(=O)/C=C(\C)c2ccc3ccccc3c2)c(C(=O)O)c1 test_target=Fibroblast reported_result=-0.29
molecule=CC(C)(O)c1coc(S(=O)(=O)NC(=O)Nc2c3c(cc4c2CCC4)CCC3)c1 test_target=Fibroblast reported_result=0.57
molecule=Nc1nc2cc(-c3cc(Cl)ccc3Oc3cc(F)c(S(=O)(=O)Nc4ncns4)cc3F)ccc2[nH]1 test_target=Fibroblast reported_result=-0.38
molecule=COc1ccc(Br)cc1S(=O)(=O)NC(=O)/C=C/c1cc(Cl)ccc1Cc1ccc2ccccc2c1 test_target=Fibroblast reported_result=-0.66
molecule=CC(C)n1cc(-c2ccc(N3CCN(C)CC3)c(NC(=O)c3ccc(-c4ccncc4)o3)c2)cn1 test_target=Fibroblast reported_result=-0.35
molecule=C=C(C)[C@H]1CN[C@H](C(=O)O)[C@H]1CC(=O)O test_target=Fibroblast reported_result=0.92
molecule=COc1cc([N+](=O)[O-])ccc1NC(=O)c1ccccc1O test_target=Fibroblast reported_result=0.04
molecule="CCCn1cc(-c2cc(C3C(=O)N(CC)c4ccc(C(F)(F)F)cc4N(c4ccccc4)C3=O)cc(OC)c2O)cn1 (stereo not given)" test_target=Fibroblast reported_result=0.51
molecule=C[C@@H]1OCC2(CCN(c3cnc(Sc4ccnc(N)c4Cl)c(N)n3)CC2)[C@@H]1N test_target=Fibroblast reported_result=0.47
molecule=CC(C)(C)c1cnc(CSc2cnc(NC(=O)C3CCNCC3)s2)o1 test_target=Fibroblast reported_result=-0.8
molecule=Cn1cc(NC(=O)c2ccc3nc4n(c3c2)CCCNC4=O)nc1C(=O)NC1CCCC1 test_target=Fibroblast reported_result=0.62
molecule=O=C(O)Cc1ccc(CCNS(=O)(=O)c2ccc(Cl)cc2)cc1 test_target=Fibroblast reported_result=-0.53
molecule=C[C@H](c1ccnc(Nc2nc3ccc(-c4cc(N(C)C)ncn4)cc3[nH]2)c1)N1CCN(C(=O)CC(F)(F)F)CC1 test_target=Fibroblast reported_result=-1
molecule=CC(C)(O)CNC(=O)N1C(=O)N(c2cccc(C(F)(F)F)c2)C2=C(C(=O)CC2)[C@H]1c1ccc(C#N)cc1 test_target=Fibroblast reported_result=0.22
molecule=CN(C)[C@H]1C[C@H](n2cnc(-c3ccc(F)cn3)c2-c2ccnc3[nH]ccc23)C1 test_target=Fibroblast reported_result=0.15
molecule=N#Cc1ccc(C#CC[C@@H](C#N)NC(=O)[C@@H]2CCCCN2)cc1F test_target=Fibroblast reported_result=-0.9
molecule=CCOC(=O)c1ncn2c1[C@@H]1CCCN1C(=O)c1cc(OC)ccc1-2 test_target=Fibroblast reported_result=-0.85
molecule=Cc1nc(-c2ccc(C(F)(F)F)cc2)sc1C(=O)NCc1ccc(OC(C)(C)C(=O)O)cc1 test_target=Fibroblast reported_result=0.77
molecule=CC(C)(C)c1ccc2c(c1)CC[C@H]2NC(=O)Nc1cccc2[nH]ncc12 test_target=Fibroblast reported_result=0.41
molecule=CC(C)N(C(=O)C1CCOCC1)c1cc(F)c(Oc2ncc(Cn3nccn3)cc2C(F)(F)F)cc1C(=O)O test_target=Fibroblast reported_result=-0.36
molecule=COc1cc(-c2cn[nH]c2)ccc1C(=O)Nc1ccc2c(c1)CCNCC2.Cl test_target=Fibroblast reported_result=0.05
molecule=Cc1nc2c([nH]1)c(=O)n(C)c(=O)n2Cc1ccco1 test_target=Fibroblast reported_result=-0.99
molecule=Cc1ccc(NC(=O)c2ccc(CN3CC[C@H](N(C)C)C3)c(C(F)(F)F)c2)cc1Nc1nccc(-c2cncnc2)n1 test_target=Fibroblast reported_result=0.2
molecule=O=C(N[C@@H]1C2CCN(CC2)[C@H]1Cc1cccnc1)c1cc2ccccc2o1 test_target=Fibroblast reported_result=-0.99
molecule="CCn1c(-c2nonc2N)nc2ccccc21 [GW549034X]" test_target=Fibroblast reported_result=-0.96
molecule=Nc1nc(-c2nn(Cc3ccccc3F)c3ncccc23)ncc1C1CC1 test_target=Fibroblast reported_result=-0.93
molecule=COc1cc(C(=O)NCCOCCOCCOCC(=O)N[C@H](C(=O)N2C[C@@H](O)C[C@H]2C(=O)NCc2ccc(-c3scnc3C)cc2)C(C)(C)C)ccc1Nc1ncc(C(F)(F)F)c(Oc2cccc3c2C(=O)CC3)n1 test_target=Fibroblast reported_result=0.86
